# Experiment Notes: Oral bioavailability in rat
# Format: ADME, organism-based
# Condition Summary: in vivo
Measure: bioavailability
In your response, the unit should come after the numeric value.

Worked examples, 3 compounds total:
1. CC1(C)[C@H](C(=O)N=C(N)N)[C@H]1c1cc(Cl)ccc1Cl    47%
2. N=C(N)NC(=O)[C@H]1C[C@@H]1c1cccc2c1CCO2    49%
3. CC1(C)[C@H](C(=O)N=C(N)N)[C@H]1c1cccc2c1CCO2    63%

Okay, next one:
Suppose we examine the compound N=C(N)NC(=O)[C@H]1C[C@@H]1c1cc(Cl)ccc1Cl ; what bioavailability value has been reported?
13%

* * *

# Experiment Notes: Half life period in rats was determined
# Assay type: ADME, organism-based
# Condition Summary: rat, in vivo
Measure: half-life
In your response, the unit should come after the numeric value.

1) CC1(C)[C@H](C(=O)N=C(N)N)[C@H]1c1cc(Cl)ccc1Cl    8 h
2) CC1(C)[C@H](C(=O)N=C(N)N)[C@H]1c1cccc2c1CCO2    3 h
3) N=C(N)NC(=O)[C@H]1C[C@@H]1c1cc(Cl)ccc1Cl    3.4 h

Okay, next one:
Suppose we examine the compound N=C(N)NC(=O)[C@H]1C[C@@H]1c1cccc2c1CCO2 ; what half-life value has been reported?
1.3 h

* * *

# Experiment Notes: Volume distribution at steady state in rats was determined
# Format: ADME, organism-based
# Condition Summary: rat, in vivo; read-out: VSS
Measure: Vd (L/kg)
The answer is to be given in L/kg; state only the numeric part.

Suppose we examine the compound N=C(N)NC(=O)[C@H]1C[C@@H]1c1cccc2c1CCO2 ; what Vd value has been reported?
6

* * *

# Experiment Notes: Plasma clearance in rats was determined
# Format: ADME, organism-based
# Condition Summary: rat
Measure: clearance (L/h/kg)
The answer is to be given in L/h/kg; state only the numeric part.

1. N=C(N)NC(=O)[C@H]1C[C@@H]1c1cc(Cl)ccc1Cl    8.58
2. N=C(N)NC(=O)[C@H]1C[C@@H]1c1cccc2c1CCO2    7.2
3. CC1(C)[C@H](C(=O)N=C(N)N)[C@H]1c1cc(Cl)ccc1Cl    2.64

Okay, next one:
Suppose we examine the compound CC1(C)[C@H](C(=O)N=C(N)N)[C@H]1c1cccc2c1CCO2 ; what clearance value has been reported?
4.44

* * *

# Target Or System: Sodium/hydrogen exchanger 1 (Homo sapiens, UniProt P19634)
# Sequence (P19634 whole entry): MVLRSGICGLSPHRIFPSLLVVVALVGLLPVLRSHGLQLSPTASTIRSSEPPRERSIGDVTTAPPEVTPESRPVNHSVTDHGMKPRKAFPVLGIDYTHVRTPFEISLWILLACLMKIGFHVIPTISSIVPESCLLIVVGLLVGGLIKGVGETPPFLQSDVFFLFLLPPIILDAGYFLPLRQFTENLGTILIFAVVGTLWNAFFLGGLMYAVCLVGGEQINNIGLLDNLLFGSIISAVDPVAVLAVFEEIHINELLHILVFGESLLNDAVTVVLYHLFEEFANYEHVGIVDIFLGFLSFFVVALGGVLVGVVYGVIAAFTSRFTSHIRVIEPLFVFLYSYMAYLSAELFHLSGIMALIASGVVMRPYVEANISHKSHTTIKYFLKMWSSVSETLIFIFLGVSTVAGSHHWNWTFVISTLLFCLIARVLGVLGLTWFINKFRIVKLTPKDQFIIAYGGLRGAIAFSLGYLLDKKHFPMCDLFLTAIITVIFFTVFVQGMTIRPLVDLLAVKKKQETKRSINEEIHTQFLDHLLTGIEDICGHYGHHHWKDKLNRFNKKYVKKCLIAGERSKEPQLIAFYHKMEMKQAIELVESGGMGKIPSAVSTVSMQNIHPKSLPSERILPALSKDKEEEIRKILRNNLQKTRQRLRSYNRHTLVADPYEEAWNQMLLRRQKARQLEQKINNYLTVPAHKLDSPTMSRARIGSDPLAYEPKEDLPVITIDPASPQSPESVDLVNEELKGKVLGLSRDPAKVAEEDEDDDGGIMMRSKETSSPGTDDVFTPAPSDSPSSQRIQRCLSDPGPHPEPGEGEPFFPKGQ
# Experiment Notes: Screened in AP1 cells expressing human NHE-1 for sodium hydrogen exchange activity
Field: label. Allowed values: satisfied (IC50 < 400 nM) or not satisfied (IC50 >= 400 nM).

Check out these entries, answers already filled in.
1. Cc1cc([C@@H]2[C@@H](C(=O)N=C(N)N)C2(C)C)ccc1F    satisfied
2. CC1(C)[C@H](C(=O)N=C(N)N)[C@H]1c1cc(Cl)ccc1Cl    satisfied
3. COc1cccc([C@@H]2[C@@H](C(=O)NC(=N)N)C2(C)C)c1    satisfied
4. N=C(N)NC(=O)[C@H]1C[C@@H]1c1cc(Cl)ccc1Cl    satisfied
5. N=C(N)NC(=O)[C@H]1C[C@@H]1c1ccccc1    not satisfied

Lab note: confirm whether the reported IC50 for this compound is below 400 nM, equality not counting. compound: CC(C)c1ccc([C@H]2C[C@@H]2C(=O)NC(=N)N)cc1
not satisfied

Lab note: confirm whether the reported IC50 for this compound is below 400 nM, equality not counting. compound: CC1(C)[C@H](C(=O)NC(=N)N)[C@H]1c1cc(Cl)cc(Cl)c1
satisfied

Lab note: confirm whether the reported IC50 for this compound is below 400 nM, equality not counting. compound: CC1(C)[C@H](C(=O)NC(=N)N)[C@H]1c1cccc(Cl)c1
satisfied
